# Test Name: Kinetic solubility of the compound
# Assay type: physicochemical
# Particulars: read-out: Kinetic_solubility
Quantity: solubility kinetic (µM)
Numbers only; they are read as µM.

Form field solubility kinetic, entry `Cn1cc(-c2nc3c(-c4ccc(CNC(=O)c5nc(C(C)(C)C)no5)c(F)c4)ccnc3[nH]2)cn1` : 1.7

###

# Test Name: Oral bioavailability in rat at 10 mg/kg
# Format: ADME, organism-based
# Particulars: in vivo
Quantity: bioavailability (%)
Numbers only; they are read as %.

Form field bioavailability, entry `Cc1nn(C(C)C)c(C)c1-c1nc2nccc(-c3ccc4c(c3)CCCC[C@H]4NC(=O)c3nc(C(C)(C)C)no3)c2[nH]1` : 77

###

# Test Name: physchem
# Particulars: FaSSIF
# solubility >= 30 µg/mL gives YES, anything below gives NO

{"Item Smiles": "CC(C)n1cc(-c2nc3c(-c4ccc5c(c4)CCC[C@@H]5NC(=O)c4nc(C(C)(C)C)no4)ccnc3[nH]2)cn1", "Assigned Category": "NO"}

Lab note: next compound to report on.
Reported solubility reaches at least 30 µg/mL for `Cn1cc(-c2nc3c(-c4ccc5c(c4)CCC[C@@H]5NC(=O)c4nc(C(C)(C)C)no4)ccnc3[nH]2)cn1` ?
YES

###

# Test Name: physchem
# Particulars: FaSSIF
Reported log10 solubility values for a set of compounds
Note the log scale: values are log10 of solubility expressed in µg/mL.

Past entries and their recorded results:
{"Item Smiles": "CN1CCN(c2ccc(Nc3cc(-c4cccc(-n5ccc6cc(C7CC7)cc(F)c6c5=O)c4CO)cn(C)c3=O)nc2)CC1", "log10 solubility": 1.49}
{"Item Smiles": "Cc1nn(C(C)C)c(C)c1-c1nc2c(-c3ccc4c(c3)CCC[C@H]4NC(=O)c3nc(C(C)(C)C)no3)ccnc2[nH]1", "log10 solubility": 1.75}
{"Item Smiles": "Cc1nn(C2CCOCC2)cc1-c1nc2c(-c3ccc4c(c3)CCC[C@@H]4NC(=O)c3nc(C(C)(C)C)no3)ccnc2[nH]1", "log10 solubility": 1.52}

Form field log10 solubility, entry `Cn1cc(-c2nc3c(-c4ccc(C5(NC(=O)c6nc(C(C)(C)C)no6)CC5)cc4)ccnc3[nH]2)cn1` : 1.75

Form field log10 solubility, entry `Cn1cc(-c2nc3c(-c4ccc(CNC(=O)c5nc(C(C)(C)C)no5)c(F)c4)ccnc3[nH]2)cn1` : 0.30

Form field log10 solubility, entry `Cc1c(-c2nc3c(-c4ccc5c(c4)CCC[C@@H]5NC(=O)c4nc(C(C)(C)C)no4)ccnc3[nH]2)cnn1C(C)C` : 1.45

Form field log10 solubility, entry `Cc1c(-c2nc3c(-c4ccc5c(c4)CCC[C@H]5NC(=O)c4nc(C(C)(C)C)no4)ccnc3[nH]2)cnn1C1CCOCC1` : 0.85
